experimental_target: α1B Human Adrenergic Receptor (Homo sapiens)
Construct: The entire coding region of α1B (1563 bp); expressed in transfected cells
Sequence (P35368 whole entry): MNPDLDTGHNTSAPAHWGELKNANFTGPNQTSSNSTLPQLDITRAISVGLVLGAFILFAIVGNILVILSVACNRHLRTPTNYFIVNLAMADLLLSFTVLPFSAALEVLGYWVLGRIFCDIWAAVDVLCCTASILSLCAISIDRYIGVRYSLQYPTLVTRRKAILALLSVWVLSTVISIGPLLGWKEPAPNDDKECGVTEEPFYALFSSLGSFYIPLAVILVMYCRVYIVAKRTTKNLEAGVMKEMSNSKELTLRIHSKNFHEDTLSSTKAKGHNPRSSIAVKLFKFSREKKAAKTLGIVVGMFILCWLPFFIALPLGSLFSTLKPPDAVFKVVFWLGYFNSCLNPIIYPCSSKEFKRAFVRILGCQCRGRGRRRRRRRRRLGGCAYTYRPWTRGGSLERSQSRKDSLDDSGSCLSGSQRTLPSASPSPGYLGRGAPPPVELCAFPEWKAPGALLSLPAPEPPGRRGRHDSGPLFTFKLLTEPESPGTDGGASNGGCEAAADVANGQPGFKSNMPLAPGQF
test_name: Radioligand binding, [3H]prazosin, cloned human α1B adrenergic receptor
condition_description: cloned human receptor in LM(tk-) cell membranes, SEM and n in lines below
Measured pKi alpha-1 1b values are reported for all entries that follow.

>  <compound>
COc1cc2c(c(OC)c1)CCN(CCCNC(=O)C1=C(c3ccoc3)NC(C)=C(C(N)=O)C1c1ccc([N+](=O)[O-])cc1)C2.Cl.O (stereo not drawn)

>  <pKi alpha-1 1b>
6.18

$$$$
>  <compound>
CCC1=C(C(=O)NCCCN2CCc3cc(OC)c(OC)cc3C2)C(c2ccc([N+](=O)[O-])cc2)C(C(N)=O)=C(C)N1.Cl.O (stereo not drawn)

>  <pKi alpha-1 1b>
5.88

$$$$
>  <compound>
COC(=O)C1=C(C)NC(C)=C(C(=O)NCCCCN2CCC(c3ccccc3)(c3ccccc3)CC2)C1c1ccc([N+](=O)[O-])cc1.Cl.O (stereo not drawn)

>  <pKi alpha-1 1b>
6.87

$$$$
>  <compound>
CNC(=O)C1=C(C)NC(C)=C(C(=O)NCCCN2CCC(c3ccccc3)(c3ccccc3)CC2)C1c1ccc([N+](=O)[O-])cc1 (stereo not drawn)

>  <pKi alpha-1 1b>
6.38

$$$$
>  <compound>
CC(=O)C1=C(C)NC(C)=C(C(=O)NCCCN2CCC(c3ccccc3)(c3ccccc3)CC2)C1c1ccc([N+](=O)[O-])cc1 (stereo not drawn)

>  <pKi alpha-1 1b>
6.58

$$$$
>  <compound>
CC1=C(C(N)=O)C(c2ccc([N+](=O)[O-])cc2)C(C(=O)NC2CCN(Cc3ccccc3)CC2)=C(c2ccoc2)N1.Cl.O (stereo not drawn)

>  <pKi alpha-1 1b>
5.36

$$$$
>  <compound>
COC(=O)C1=C(C)NC(c2ccccc2)=C(C(=O)NCCCN2CCC(c3ccccc3)CC2)C1c1ccc([N+](=O)[O-])cc1.Cl (stereo not drawn)

>  <pKi alpha-1 1b>
7.33

$$$$
>  <compound>
CCC1=C(C(=O)NCCCCN2CCC(c3ccccc3)CC2)C(c2ccc([N+](=O)[O-])cc2)C(C(N)=O)=C(C)N1.Cl.O (stereo not drawn)

>  <pKi alpha-1 1b>
7.16

$$$$
>  <compound>
CC1=C(C(=O)NCCCN2CCC(c3ccccc3)(c3ccccc3)CC2)C(c2ccc([N+](=O)[O-])cc2)C(C(=O)N(C)C)=C(C)N1 (stereo not drawn)

>  <pKi alpha-1 1b>
5.93

$$$$
